System: MT4
Assay notes: Cytotoxicity against human MT4 cells after 7 days by MTT assay
Assay type: cell-based
Applied conditions: mt4, 168 h
Quantity name: CC50

Example cases with answers are listed next.
COc1ccc(S(=O)(=O)N(CC(C)C)C[C@@H](O)[C@H](Cc2ccccc2)NC(=O)O[C@@H]2C[C@@H]3OC(=O)N(C)[C@@H]3C2)cc1    > 100 µM
CC(C)CN(C[C@@H](O)[C@H](Cc1ccccc1)NC(=O)O[C@H]1C[C@H]2OC(=O)N(C)[C@H]2C1)S(=O)(=O)c1ccc2nc(NC3CC3)sc2c1    43 µM
COc1ccc(S(=O)(=O)N(CC(C)C)C[C@@H](O)[C@H](Cc2ccccc2)NC(=O)O[C@H]2C[C@H]3OC(=O)N(CC(C)C)[C@H]3C2)cc1    > 100 µM
C=C(C)CN1C(=O)O[C@@H]2C[C@H](OC(=O)N[C@@H](Cc3ccccc3)[C@H](O)CN(CC(C)C)S(=O)(=O)c3ccc(OC)cc3)C[C@@H]21    > 100 µM

Shift focus to the following entry.
Which CC50 is reported for this molecule? COc1ccc(S(=O)(=O)N(CC(C)C)C[C@@H](O)[C@H](Cc2ccccc2)NC(=O)O[C@@H]2C[C@@H]3NC(=O)O[C@@H]3C2)cc1 > 100 µM
